assay: yeast display, Sf9 membrane polyspecificity reagent, FACS + sequencing; frameworks hold sequencing errors

# biopolymerSequence, polyreactivity (PSR sort gate)
measured = [
    ("QVQLVESGGGLVQAGGSLRLICAASGFIFSFNAMGWYRQAPGKERELVAAIRRSAGSTYYADSVKGRFTISRDNAKNTVYLQMNSLKPEDTAVYYCATVTRLYRHGYWGQGTQVTVSS", "high polyreactivity"),
    ("QVQLVESGGGLVQAGGSLRLSCAASGSIFVGNAMGWYRQAPGKERELVAAISSGGSTYYADSVKGRFTISRDNAKNTVYLQMNSLKPEDTAVYYCAAYYVRRYSSRPKDDYWGQGTQVTVSS", "low polyreactivity"),
    ("QVQLVESGGGLVQAGGSLRLSCAASGSIFYRNAMGWYRQAPGKERELVASITSGGRTNYADSVKGRFTISRDNAKNTVYLQMNSLKPEDTAVYYCARGRASYTKSGPTPYTGYGYWGQGTQVTVSS", "low polyreactivity"),
    ("QVQLVESGGGLVQAGGSLRLSCASSGRIFYPNAMGWYRQAPGIERELVAAISSRGGSTYYADSVKGRFTISRDNAKNTVYLQMNSLKPEDTAVYYCNRVYYTIGYDYWGQGTQVSVSS", "high polyreactivity"),
    ("QVQLVESGGGLVQAGGSLRLSCAASGSTFDWYAMGWYRQAPGKERELVATIRYRGGTSYADSVKGRFTISRDNEKNTVYLQMNSLKPEDTAVYYCNAQLYIFDDSYNYWGFDYWGQGTQVTVSS", "high polyreactivity"),
]

---

experiment: yeast display, Sf9 membrane polyspecificity reagent, FACS + sequencing; frameworks hold sequencing errors
measurementKind: polyreactivity (PSR sort gate)

# biopolymerSequence, result
data = [
    ("QVQLVESGGGLVQAGGSRRLSCAASGLIFDKAMGWYRQAPGKQREFVAAITYSTGSTYYADSVKGRFTISRDNAKNTVYLQMNSLKPEDTAVYYCAKDGSGHGTERDYWGQGTQVTVSS", "low polyreactivity"),
    ("QVQLVESGGGLVQAGGSLRVSCAASGNTFYYTMGWYLQAPGKERELVATISYDGTSTYYADSVKGRFTISRDNAKNTVYLQKNSLKPEDTAVYYSSAYGTVVTLNDYWGQGTQVTVSS", "low polyreactivity"),
]

---

experiment: yeast display, Sf9 membrane polyspecificity reagent, FACS + sequencing; frameworks hold sequencing errors
measurementKind: polyreactivity (PSR sort gate)

# biopolymerSequence, result
rows = [
    ("QVQLVESGGGLVQAGGSLRLSCAASGRIVYSNAMVWYRQAPGKERELVASITRGSRTNYADSVKGRFTISRDNAKHSVYLPMNSLKPEDTAVYYCARRYLLKPGFGRFYYWGQGNQVTVSS", "high polyreactivity"),
    ("QVQLVESGGGLVQAGGSLRLSCAASGSTFEAYAMGWYRQAPGKERELVAAINFTGGRTYYADSVKGRFTISRDNAKNTVYLQINSLKPEDTAVYYCAARKWGVPYIDNDYWGQGTQVTVSS", "low polyreactivity"),
    ("QVQLVESGGGLVQAGGSLRLSCAASGRIFRSYAMGWYRQAPGKERELVAAINYGGTSTYYADSVKGRFTISRDNAKNTVYLQMNSLKPEDTAVYYCAARRPTSPRRYESRGQGTQVTVSS", "high polyreactivity"),
    ("QVQLQESGGGLVQAGGSLRLSCAASGIIFDNPNMGWYRQAPGKERELVATINSGATTNYADSVKGRFTISRDNENNTVYLQMNSLIPEDTAVYYCAVDLSPTYFYFWGQGTQVTVSS", "high polyreactivity"),
    ("QVQLVESGGGLVQAGGSLRLSCAASGFIFFPYTMGWYRQAPGKERELVAAITNGGSTSYADSVKGRFTISRDNAKNTVYLQMNSLKPEDTAVYYCAADLGRNLLHTYYYWGQGTQVTVSS", "low polyreactivity"),
]

---

experiment: yeast display, Sf9 membrane polyspecificity reagent, FACS + sequencing; frameworks hold sequencing errors

# biopolymerSequence, polyreactivity (PSR sort gate)
data = [
    ("QVQLVESGGGLVQAGGSLRLSCAASGSTFGYYAMGWYRQAPGKERELVATITSSGDNTYADSVKGRFTISRDNAKNTVYLQMNSLKPEDTAVYYCNARYRKSSRPVYEPYERYYWGQGTQVTVSS", "high polyreactivity"),
    ("QVQLVETGGGLVQAGGSLRLSCAASGRTIGFYAMGWYRQAPGKERELVAAINRSGDSTYYADSVKGRFTISRDNAKNTVYLHMNSLKPEDTAVYYCAARRSTGYGYWGQGTQVTVSS", "high polyreactivity"),
    ("QVLLVESRGGLVQAGGSLRLSCAASGSIFFYYAMGWYRQAPGKETELVASISWSGGSTYYADSVKGRFTISRDNAKNTVYLQMNSLKPEDTAVYFCAKVTITFSWETLYDYWGQGTQVTVSS", "low polyreactivity"),
    ("QVQLVESGGGLVQAGGSLRLSCAASGLIFVQNAMGWYRPAPGKERELVAAISSRGTNTYYADSVKGRFTISRDTAKNTVYLQMNSLKPEDTAVYYCAKPLKTPRPNYDYWGQGTQVTVSS", "low polyreactivity"),
    ("QVQLVESGGGLVQAGGSLRLSCAASGFILLDNAMGRYRQAPVKEREFVASINISGDRTFYADSVKGRFTISRDNAKNTVYLQMNSLKPEDTAVYYCAKEPGLGRRSTTAYDYWGQGTQVTVSS", "low polyreactivity"),
]

---

assay: yeast display, Sf9 membrane polyspecificity reagent, FACS + sequencing; frameworks hold sequencing errors

# biopolymerSequence, polyreactivity (PSR sort gate)
data = [
    ("QVQLVESGGGLVQAGGSLRLSCAASGSTFYYYTMGWYRQAPGKERELVAVISRDGRTNYADSVKGRFTISRDNAKNTVYVQMNSLKPEDTAVYYCNADYYWNGVYHYDYWGQGTQVTVSS", "low polyreactivity"),
    ("QVQLVESGGGLVQAGGSLRLSCAASGSTFTVNAMGWYRQAPGKERELVAVIRKSGTSTYYADSVKGRFSISRDNAKNTVYLQMNSLKPEDTAVYYCAAGGPSTLDDYWGQGTQVTVSS", "low polyreactivity"),
    ("QVQLVESGGGLLQAGGSLRLSCADSGRTFGGYSMGWYRQATGKERELVAAISKRSGSTYYADSVKGRFTISRVNAKNTVYLQMNSLKPEDTAVYYCNKVWFQRSVQPVEYDYWGQGTQVTVSS", "high polyreactivity"),
    ("QVQLVESGGGLVQAGGSLRLSCAASGIIFDGNSMGWYRQAPGKEREFVAANSRNGGSTSYADSVKGRFTISRHNAKNTVYLQMHSLKPEDTAVYYCAADVETFWGCRYEYWGQGTQVTVSS", "low polyreactivity"),
    ("QVHLVESGGGLVQAGGSLRLSCAASGRTFASNPMGWYRQAPGKERELVAAISARGGSTYYADSVKGRFTISRDNAKNTVYLQMNSLKPEDTAVYYCAAYLGYPYGRDYWGQGTQVTVSS", "high polyreactivity"),
    ("QVQLVESGGGIVQAGGSLRLSCAASGRIFSVYAKGWTRQAPGKERELVAAISSGGTTYYADSVKGRFTNSRDNAKNTVYLLMNSQKPDDTAVYYFAASVYYYRYNYWGQGTQVTVSS", "low polyreactivity"),
    ("QVQLVESGGGLVQAGGSLRLSCAASGFILQTYAMGWYRQAPGKERELVAAITSGARTYYADSVKGRFTISRDNAKNTVYLQMNSLKPEDTAVYYCAASIWLYRYYYWGQGTQVTVSS", "high polyreactivity"),
    ("QVQLVESGGGLVQAGGSLRLSCAASGLTFTTYAMGWYRQAPGKERELVAAISRRGSRTYYADSVKGRFTISRDNAKNTVYLQMNSLKPEDTAVYYCARRAGSYPYGYTGYDYWGQGTQVTVSS", "high polyreactivity"),
    ("QVQLVESGGGLVQAGGSLRLSCAASGRTIDYNGRGSYRQAPGKERELVAVISSSGGSPFYADSVKGRFTISRDNAKNTVYLQMNSLKPEDTAVYYCAADFIVAYTLHGSYDYWGQGTQVTVSS", "low polyreactivity"),
    ("QVQLVESGGGLVQAGGSLRISCAASGFTFYIYAMGWYRQAPGKERELVAAISARGGSTYYADSVKGRFTISRDNAKNTVYLQMNSLKPEDTAVYYCNALYNYAEIYGRGYWGLGTQVTVSS", "high polyreactivity"),
    ("QVQLVESGGGLVQAGGSLRLSCAASGSIFTYYVMGWYRQAPGKERELVAAITRSGGRTYYADSVKGRFTISRDNAKNTVYLQMNSLKPEDTAVYYCAARKYTGSGSRYYYWGQGTQVTVSS", "high polyreactivity"),
]

---

assay: yeast display, Sf9 membrane polyspecificity reagent, FACS + sequencing; frameworks hold sequencing errors

# biopolymerSequence, polyreactivity (PSR sort gate)
records = [
    ("QVQLVESGGGLVQAGGSLRLSCAASGFTFNYSAKGWYRQAPGKEREFVAAISRGGGRTYYADSVKGRFTISRDNANNTVYLQMNSLKPEATAVYSCAAQSVPYAYPLASYDYWGQGTQVTVSS", "high polyreactivity"),
    ("QVQLVESGGGLVQAGGSLRLTCAASGSTFGDNAMGWYRQAPGKEREFVATISWDTGTTYYADSVKGRFTISRDNAKNTVYLHMNSLKQEDTAVYYCNVQSYAEFGYWGQGTQVTVSS", "low polyreactivity"),
    ("QVQLVESGGGLVQAGGSLRLSCAASGFIFSIYAMGWYRQAPGKERELVAAISGTGSTSYADSVKGRFTISRDNAKNTVYLQMNSLKPEDTAVYYCAKDGPGRLGDDYWGQGTQVTVSS", "low polyreactivity"),
    ("QVQLVESGGGLVQAGGSLRLSCAASGYIFDVNTMGWYRQAPGKERELVAVIRRGGSTTYADSVKGRFTISRDNAKNTVYLQMNSLKPEDTAVYYCNARVTLGRPLFTYLVRYEYWGQGTQVTVSS", "high polyreactivity"),
    ("QVQLVESGGGLVQAGGSLRLSCAASGNIFGLYAMGWYRQAPGTERELVAAISFSDTSTYYADSVKGRYTISRDNAKNTVYLQMNSLKPEDTAVYYCAAELWFNNGEHNYWGQGTQVTVSS", "high polyreactivity"),
    ("QVQLVESGGGLVQAGGSLRLSCAASGINTAGYAMGWYRQAPGKERELVAAISTSGTSTYYADSVKGRFTISRDNAQNTVYLQMNSLQPEDTAVYYCAYTNYYGVGYYYWGQGTLVTVSS", "low polyreactivity"),
    ("QVQLVESGGGLVQAGGSLRLSCAASGSIYSYTMGWYRQAPGKEKELVAAITYSGDSTYYADSVKGRFTISRDNAKNTVYLQMNSLKPDDTAVYYCAKSGTLSEYDYWGQGTQVTVSS", "low polyreactivity"),
    ("QVQLVESGGGLVQAGGSLRLSCAASGRIFGWYAKGWYRQAPGKETELVAAISPGGSTKYADSVKGRFTISRDYAKNTVYLQMNSLKPEDTADYYFAADLFNYTTGRDYWGQGTQVTVSS", "low polyreactivity"),
    ("QVQLLESGGGLVQAGGRLRLSCAASGSIFLWNAMGWYRQAPGKERELVAAITNIGGRTYYADSVKGRFTISRDNAKNTVYLQMNSLKPEDTAVYYCNVVVKGAWDYYPYDYWGQGTQVTVSS", "high polyreactivity"),
    ("QVQLVESGGGLVQAGGSLRLSCAASGITTTVYAMGWYRQAPGKERELVAGISWSTSSTYYADSVKGRFTISRDNAKNTVYLQMNSLKPEDNAVYYCAVYTITGRVLRQGPLYRHYYWGQGTQVTVSS", "high polyreactivity"),
    ("QDQLVESGGGLVQAGGSLRLRCAASGFIFRYYAMGWYRQAPGKERELVAAIDYSGGSTNYADSVKRRFTISRDNAKNTVYLQMNSLKPEDTAVYYCNAEYTWHRGYDYWGQGTQVTVSS", "low polyreactivity"),
]

Reference source for all entries: the nanobody polyreactivity screen of Harvey et al. (2022)
